Test Method Notes: Binding affinity against opioid receptor delta 1 using [3H]naltrindole as radioligand in guinea pig brain membranes.
# pKi values compiled below
# pKi is unitless: minus log10 of the molar concentration; print number only

// solved cases for pKi follow
Qu. Please report the recorded pKi for CC(C)=CCN1CC[C@]23CCCC[C@H]2[C@H]1C(=O)c1ccc(O)cc13 .
Ans. 5.96

Qu. Please report the recorded pKi for O=C1c2ccc(O)cc2[C@@]23CCCC[C@H]2[C@@H]1N(CC1CC1)CC3 .
Ans. 6.82

Qu. Please report the recorded pKi for Nc1ccc2c(c1)[C@@]13CCCC[C@H]1[C@@H](C2=O)N(CC1CCC1)CC3 .
Ans. 6.22

Qu. Please report the recorded pKi for CN1CC[C@]23CCCC[C@H]2[C@H]1Cc1ccc(CN)cc13 .
Ans. 5.60

---
Qu. Please report the recorded pKi for COc1ccc2c(c1)[C@@]13CCCC[C@H]1[C@H](NCC3)C2=O .
Ans. 7.80

Qu. Please report the recorded pKi for O=C1c2ccc(O)cc2[C@@]23CCCC[C@H]2[C@@H]1N(C[C@@H]1CCCO1)CC3 .
Ans. 9.00

---

Test Method Notes: Binding affinity against opioid receptor delta 1 using [3H]naltrindole as radioligand in guinea pig brain membranes.
# pKi values compiled below
# pKi is unitless: minus log10 of the molar concentration; print number only

Qu. Please report the recorded pKi for CN1CC[C@]23CCCC[C@H]2[C@H]1C(=O)c1ccc(O)cc13 [3-Hydroxy-10-keto-N-methylmorphinan] .
Ans. 5.92

---
Qu. Please report the recorded pKi for NC(=O)c1ccc2c(c1)[C@@]13CCCC[C@H]1[C@@H](C2=O)N(CC1CCC1)CC3 .
Ans. 7.30

Qu. Please report the recorded pKi for N#Cc1ccc2c(c1)[C@@]13CCCC[C@H]1[C@@H](C2)N(CC1CCC1)CC3 .
Ans. 5.72

Qu. Please report the recorded pKi for CN1CC[C@]23CCCC[C@H]2[C@H]1Cc1ccc(C(N)=O)cc13 .
Ans. 7.89

Qu. Please report the recorded pKi for O=C(O)c1ccc2c(c1)[C@@]13CCCC[C@H]1[C@@H](C2=O)N(CC1CCC1)CC3 .
Ans. 6.10

---

Test Method Notes: Binding affinity against opioid receptor delta 1 using [3H]naltrindole as radioligand in guinea pig brain membranes.
Readout Name: Ki

// solved cases for Ki follow
Qu. Please report the recorded Ki for O=C1c2ccc(OCC3CCC3)cc2[C@@]23CCCC[C@H]2[C@@H]1N(CC1CCC1)CC3 .
Ans. > 10 µM

Qu. Please report the recorded Ki for c1cc2c(cc1-c1nnn[nH]1)[C@@]13CCCC[C@H]1[C@@H](C2)N(CC1CCC1)CC3 .
Ans. > 10 µM

Qu. Please report the recorded Ki for CN1CC[C@]23CCCC[C@H]2[C@H]1Cc1ccc(-c2nnn[nH]2)cc13 .
Ans. > 10 µM

Qu. Please report the recorded Ki for CN1CC[C@]23CCCC[C@H]2[C@H]1Cc1ccc(C#N)cc13 .
Ans. > 1 µM

Then this compound:
Qu. Please report the recorded Ki for O=C1c2ccc(O)cc2[C@@]23CCCC[C@H]2[C@@H]1NCC3 [3-hydroxy-normorphinan] .
Ans. > 10 µM
